Values from PubChem BioAssay (NCI)

Consider the following molecules; for each one, report its TGI.
System: HOP-62 NSCLC
Assay: NCI tumour cell line growth inhibition, 48 h

Noted TGI for `CC(C)(C)c1ccc(Oc2ccc(C#N)c(C#N)c2)c(C(C)(C)C)c1` , tested on HOP-62 NSCLC: > 100 µM

Readout TGI for CCCC[P+](CCCC)(CCCC)C(C(=O)OC)C(C(=O)OC)=C1SC(C(=O)OC)=C(C(=O)OC)S1 (stereo not given) , test system HOP-62 NSCLC, was > 100 µM

HOP-62 NSCLC assay, molecule `O=c1cnn(C/C=C/CP(=O)(O)O)c(=O)[nH]1` , recorded TGI = > 100 µM

The reported TGI value, HOP-62 NSCLC, for `Cc1nc2ccc(S(=O)(=O)Nc3ccccn3)cc2c(=O)n1NS(=O)(=O)c1ccccn1` reads > 100 µM

// assay HOP-62 NSCLC, entry COCC1N=C(c2ccc(OC)c(OCc3ccccc3)c2OC)O[C@H]1c1ccccc1 (stereo not given in full) , TGI value = > 100 µM

Param item: COc1ccc(-c2c(C#N)c(N)n(C3OCC(O)C(O)C3O)c(=S)c2C#N)cc1 (stereo not given) ; param system: HOP-62 NSCLC; output TGI: > 100 µM

Entry `CCN(CC)c1ccc2[nH]c3c(C(N)=O)cc(=O)c(=O)c=3oc2c1` , HOP-62 NSCLC data, TGI value: 15.4 µM

Noted TGI for `Cc1ccc2c(/C=C/C(=O)c3cc(CN4CCOCC4)c(O)c4nc(C)ccc34)cc(CN3CCOCC3)c(O)c2n1` , tested on HOP-62 NSCLC: 11.8 µM

`N/C(=N\Nc1cccc(Cl)c1)c1cccnc1` tested on HOP-62 NSCLC gave TGI: > 100 µM

Considering `COc1ccccc1-c1n[nH]c(-c2ccccc2O)n1` , its TGI with HOP-62 NSCLC was recorded as > 100 µM
